- tested_system: T1, RSV F ectodomain stabilized in the postfusion conformation (F ΔFP), subtype A (Respiratory syncytial virus subtype A, UniProt P03420 26-109; P03420 147-524)
- T1 construct: extracellular domain; trimer; also called Postfusion subtype A; Postfusion RSV F
- assay_procedure: BLI, IgG on AHQ sensors, 100 nM antigen
observation_type: Kd (nM)
// note: answer is a bare numeric in nM

>  <binder>
ADI-14552 (antibody, V domains shown, IgG) VH: EVQLLESGPELKKPGSSVKVSCKASADTFNGHSIAWVRQAPGQGLEWVGGFIPIFGKAYYAQNFQGTVTISADSSTRTVYMDLFNLRSEDTAVYYCARSRKNVIGDTSAWEHMYFYMDVWGTGTTVTVSS VL: EIVLTQSPGTLSLSPGERVTLSCRASESINKNTYLAWYQQKPGQAPRLLIYGASSRATGIPDRFSGSGSGTDFTLTISRLEPEDSAVYYCQQYGRSMTFGGGTKVEIK

>  <numeric_value>
1.27

$$$$
>  <binder>
ADI-14561 (antibody, V domains shown, IgG) VH: QVQLVQSGAEVKKPGSSVRVTCKASGGTVSDYAITWVRQAPGQGLEWMGGFIPMFGVAKDAEKFQGRVTLTGDKSTNAVYMELSSLTSEDTAVYYCARSKRLPAGLSTSDYYYYYLDVWGKGTTVTVSS VL: EIVLTQSPGTLSLSPGEGATLSCTASQNVFRTHVAWYQQTPGQAPRLLIYGGSTRATGIPDRFSGSGSGTDFTLIISRLEPEDFAVYYCHHFGTTPWTFGQGTKVEIK

>  <numeric_value>
3.09

$$$$
>  <binder>
ADI-14534 (antibody, V domains shown, IgG; also called Antibody Number 94) VH: EVQLVESGGGVVQPGRSLRLSCAVSGFTFSNFGMHWVRQAPGKGLEWVAAISYDGRKRFQADSVKGRFTISRDNLKNTLNLQMNSLKTEDTAVYYCAKSSRLLDWLYNMDFWGQGTTVTVSS VL: SYVLTQPPSVSVAPGKTARITCGGNILGSSSVHWFQQKAGQAPVLVIYYDSDRPSGIPERFSGSHSGDTATLTISRVEVGDEADYYCQVWDNSNSQGVFGGGTQLTVL

>  <numeric_value>
1

$$$$

Req: Dear colleague, I am looking for the recorded Kd of the following binder: ADI-14536 (antibody, V domains shown, IgG; also called Antibody Number 96) VH: QVQLVQSGGGVVQPGRSLRLSCAASGFSFSSYGMHWVRQAPGKGLEWVAAIFYHEIKDYYADSVNGRFSISRDNSKNTLYLEMYSLKVEDTAVYYCARDSGTLTGLPHDAFDIWGQGTTVTVSS VL: DIQMTQSPSTLSASLGGRVTITCRASQSVTNRLAWYQHKPGKAPNLLIYKASTLEIGVPSRFSGSGSGTEFTLTISSLQPDDFATYYCQQYSSYSWTFGQGTKVEIK
Resp: 0.404

Req: And ADI-14554 (antibody, V domains shown, IgG) VH: QVQLVQSGGGLVKPGGSLRLSCAASGFAFSNAWMSWVRQAPGKGLEWLGRIKSETDGGTTDYAAPVKGRFSISRDDSRNTLYLQMNSLESEDTAVYYCTTGPPYKYFDSTGYSVVDYWGQGTLVTVSS VL: SYELTQPPSASGTPGQRVTISCSGSSSNIGSNYVYWYQQLPGTAPRLLIYSTNQRPSGVPDRFSGSQSGTSASLAISGLRSDDEADYYCAAWDDRMSGPVFGGGTKLTVL ?
Resp: 0.388

Cited source for all entries: patent US20250313612A1
